# target-under-test: CD28 (human) (UniProt P10747)
# test: flow cytometry, Jurkat/IL2 reporter cells (endogenous CD28); MFI ratio to WT CD80 ECD-Fc (R&D)
property-name: Fold change to WT
Answer with the figure and its unit, nothing else.

Q. Provide one value: measured Fold change to WT of variant CD80 IgV-Fc V22A/R29H/E35D/D46E/M47I (Fc fusion) VIHVTKEVKEVATLSCGHNVSAEELAQTHIYWQKDKKMVLTMMSGEINIWPEYKNRTIFDITNNLSIVILALRPSDEGTYECVVLKYEKDAFKREHLAEVTLSVKAD
A. 0.04 fold

Q. Give Fold change to WT for variant CD80 IgV-Fc E35D/D46E/M47V/L97Q (Fc fusion) VIHVTKEVKEVATLSCGHNVSVEELAQTRIYWQKDKKMVLTMMSGEVNIWPEYKNRTIFDITNNLSIVILALRPSDEGTYECVVLKYEKDAFKREHQAEVTLSVKAD
A. 0.05 fold

Q. Note down Fold change to WT recorded for variant CD80 IgV-Fc Q33L/E35D/M43V/M47I/A71G (Fc fusion) VIHVTKEVKEVATLSCGHNVSVEELAQTRIYWLKDKKMVLTMVSGDINIWPEYKNRTIFDITNNLSIVILGLRPSDEGTYECVVLKYEKDAFKREHLAEVTLSVKAD
A. 0.04 fold

Q. Return Fold change to WT for the following binder: variant CD80 IgV-Fc H18Y/E35D/V68M/L97Q (Fc fusion) VIHVTKEVKEVATLSCGYNVSVEELAQTRIYWQKDKKMVLTMMSGDMNIWPEYKNRTIFDITNNLSIMILALRPSDEGTYECVVLKYEKDAFKREHQAEVTLSVKAD
A. 0.04 fold

Q. Name the recorded Fold change to WT of the binder listed here: variant CD80 IgV-Fc A26E/E35D/M43T/M47L/L85Q/R94Q (Fc fusion) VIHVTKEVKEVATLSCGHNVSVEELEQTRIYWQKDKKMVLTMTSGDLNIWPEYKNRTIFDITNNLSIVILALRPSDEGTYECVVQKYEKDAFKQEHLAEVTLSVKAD
A. 0.03 fold

Q. Dear colleague, please send me the reported Fold change to WT for variant CD80 IgV-Fc Q33K/E35D/D46V/L85Q (Fc fusion) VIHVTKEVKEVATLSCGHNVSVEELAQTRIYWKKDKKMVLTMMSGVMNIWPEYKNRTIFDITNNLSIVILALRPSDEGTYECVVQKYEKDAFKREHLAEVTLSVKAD when you can.
A. 0.03 fold

Q. Return Fold change to WT (reported value) for this binder: variant CD80 IgV-Fc A26E/Q33L/E35D/M47L/L85Q (Fc fusion) VIHVTKEVKEVATLSCGHNVSVEELEQTRIYWLKDKKMVLTMMSGDLNIWPEYKNRTIFDITNNLSIVILALRPSDEGTYECVVQKYEKDAFKREHLAEVTLSVKAD
A. 0.04 fold

Q. Give the value of Fold change to WT reported for the following: variant CD80 IgV-Fc Q33L/E35D/M43I/L85Q/R94W (Fc fusion) VIHVTKEVKEVATLSCGHNVSVEELAQTRIYWLKDKKMVLTMISGDMNIWPEYKNRTIFDITNNLSIVILALRPSDEGTYECVVQKYEKDAFKWEHLAEVTLSVKAD
A. 0.04 fold

Q. In one line, give reported Fold change to WT of the entry variant CD80 IgV-Fc V22A/E23D/Q33L/E35D/M47V (Fc fusion) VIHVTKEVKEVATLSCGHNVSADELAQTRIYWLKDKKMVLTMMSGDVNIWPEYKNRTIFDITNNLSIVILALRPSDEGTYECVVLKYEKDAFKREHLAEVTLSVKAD .
A. 0.04 fold

Q. Identify the reported Fold change to WT for the following entry. variant CD80 IgV-Fc Q33L/E35D/N48K/L85Q/L97Q (Fc fusion) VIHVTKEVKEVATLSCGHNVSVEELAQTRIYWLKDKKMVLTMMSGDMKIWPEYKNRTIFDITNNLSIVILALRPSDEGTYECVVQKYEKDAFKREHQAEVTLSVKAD
A. 0.04 fold

Q. Please give measured Fold change to WT of the following entry: variant CD80 IgV-Fc Q33L/E35D/T41S/M43I (Fc fusion) VIHVTKEVKEVATLSCGHNVSVEELAQTRIYWLKDKKMVLSMISGDMNIWPEYKNRTIFDITNNLSIVILALRPSDEGTYECVVLKYEKDAFKREHLAEVTLSVKAD
A. 0.06 fold

Q. Return reported Fold change to WT. Input binder: variant CD80 IgV-Fc A26E/Q33R/E35D/M47L/L85Q (Fc fusion) VIHVTKEVKEVATLSCGHNVSVEELEQTRIYWRKDKKMVLTMMSGDLNIWPEYKNRTIFDITNNLSIVILALRPSDEGTYECVVQKYEKDAFKREHLAEVTLSVKAD
A. 0.03 fold

Q. Query Fold change to WT for variant CD80 IgV-Fc E35D/M47V/A71G/L85M/L97Q (Fc fusion) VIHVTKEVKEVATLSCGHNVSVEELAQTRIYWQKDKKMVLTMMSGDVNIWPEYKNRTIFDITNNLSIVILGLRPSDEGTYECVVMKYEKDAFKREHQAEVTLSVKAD
A. 0.04 fold

Q. Annotate the binder variant CD80 IgV-Fc A26E/Q33L/E35D/M47L (Fc fusion) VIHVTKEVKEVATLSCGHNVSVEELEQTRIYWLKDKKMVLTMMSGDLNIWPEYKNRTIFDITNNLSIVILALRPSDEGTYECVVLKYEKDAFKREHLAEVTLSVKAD with its measured Fold change to WT.
A. 0.04 fold

Q. Give reported Fold change to WT value for variant CD80 IgV-Fc H18L/V22A/E35D/M47L/N48T/L85Q (Fc fusion) VIHVTKEVKEVATLSCGLNVSAEELAQTRIYWQKDKKMVLTMMSGDLTIWPEYKNRTIFDITNNLSIVILALRPSDEGTYECVVQKYEKDAFKREHLAEVTLSVKAD
A. 0.06 fold

Q. Return value of Fold change to WT for input variant CD80 IgV-Fc Y31S/E35D/M47L/T79L/E88G (Fc fusion) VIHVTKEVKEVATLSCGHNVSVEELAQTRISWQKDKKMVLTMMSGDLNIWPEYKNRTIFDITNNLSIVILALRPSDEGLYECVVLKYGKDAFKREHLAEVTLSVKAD , no commentary.
A. 0.04 fold
